assay: chemical genetic growth profiling, strain panel (AID 1159580);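 further: tested at 20 µM; growth read once vehicle control cultures reached saturation at 30 °C; 1 = growth at the plate median or of vehicle wells; lower values mean less growth of the strain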; conditions: S. cerevisiae deletion strains, growth OD, locus YKL009W, strain mrt4, stronger effect = lower value
Among all 5,500 compounds or so, about 2,000 (36%) were called active. Another 18% or so got no clear call; they are omitted. This is one part of the list.
measured.parameter: normalized growth
Just the number, please.

Before answering, review these 10 worked examples.
{"molecule": "O=C(CCc1ccc(O)cc1)c1c(O)cc(O)cc1O[C@@H]1O[C@H](CO)[C@@H](O)[C@H](O)[C@H]1O", "normalized growth": 0.978}
{"molecule": "COc1ccc(C(=O)O)c(O)c1OC", "normalized growth": 1.01}
{"molecule": "NCCc1c[nH]c2ccccc12", "normalized growth": 0.991}
{"molecule": "CC(=O)Oc1cccc2c1C(=O)c1c(OC(C)=O)cc(C(=O)O)cc1C2=O", "normalized growth": 0.986}
{"molecule": "CCC1(CC)C(=O)C=CNC1=O", "normalized growth": 1}
{"molecule": "Cc1cc(=O)n(-c2ccccc2)n1C", "normalized growth": 1}
{"molecule": "O=c1[nH]cnc2c1ncn2C1O[C@H](CO)[C@@H](O)[C@H]1O (stereo partly specified)", "normalized growth": 0.979}
{"molecule": "COc1cc(-c2coc3cc(O[C@@H]4O[C@H](CO)[C@@H](O)[C@H](O)[C@H]4O)c(OC)c(O)c3c2=O)cc(O)c1OC", "normalized growth": 1.02}
{"molecule": "CC(=O)N[C@@H](Cc1c[nH]c2ccccc12)C(=O)O", "normalized growth": 0.981}
{"molecule": "CCOc1ccc(C(=O)c2ccc(O)c(O)c2O)cc1", "normalized growth": 0.983}

With those in mind, consider the next molecule.
Look up normalized growth: CNC(Cc1c[nH]c2ccccc12)C(=O)O (stereo unspecified) 0.99

====

Reported normalized growth values are given for each entry in this list.
experiment: chemical genetic growth profiling, strain panel (AID 1159580);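 further: tested at 20 µM; growth read once vehicle control cultures reached saturation at 30 °C; 1 = growth at the plate median or of vehicle wells; lower values mean less growth of the strain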; conditions: S. cerevisiae deletion strains, growth OD, locus YDL035C, strain GPR1, stronger effect = lower value
The whole screen tested about 5,500 compounds, of which about 2,000 (36%) were called active. About 18% were inconclusive and are not listed. Some of the results follow. Where a SMILES comes first, the peptide text is derived from it. Bridges are numbered along the chain shown (N, C = ends). [ ]: non-standard residue; d: D form. The star is where a group is joined. Octanoyl(6-Me) = CCC(C)CCCCC(=O)*; Dab = NCC[CH](N)C(=O)O
Just the number, please.

Before answering, review these 4 worked examples.
{"compound": "CO[C@@]1(NC(=O)Cc2cccs2)C(=O)N2C(C(=O)O)=C(COC(N)=O)CS[C@@H]21", "normalized growth": 1.01}
{"compound": "Cc1ccc(N(CC2=NCCN2)c2cccc(O)c2)cc1", "normalized growth": 0.985}
{"compound": "CCC1(CC)C(=O)C=CNC1=O", "normalized growth": 1.02}
{"compound": "CC1(C)C(=O)[C@@H]2O[C@@H]2[C@@]2(C)C1CC(=O)[C@]1(C)C2CC[C@@]2(C)[C@H](c3ccoc3)OC(=O)[C@H]3O[C@]321 (stereo partly drawn)", "normalized growth": 0.992}

Look up normalized growth: CC[C@H]1OC(=O)[C@H](C)[C@@H](O[C@H]2C[C@@](C)(OC)[C@@H](O)[C@H](C)O2)[C@H](C)[C@@H](O[C@@H]2O[C@H](C)C[C@H](N(C)C)[C@H]2O)[C@](C)(O)C[C@@H](C)[C@@H]2N[C@@H](COCCOC)O[C@H]([C@H]2C)[C@]1(C)O 1.01

Proceed to COc1cc(NS(=O)(=O)c2ccc(N)cc2)ncn1 0.993

Proceed to CC(=O)Oc1cccc2c1C(=O)c1c(OC(C)=O)cc(C(=O)O)cc1C2=O 1.01

Proceed to CCCCCCCCCCCCCCCCCCOCC(O)CO (stereo not drawn) 1.02

Proceed to COc1cc(-c2oc3cc(O)ccc3c(=O)c2O)cc(OC)c1OC 1

Proceed to CC(N)C(O)c1ccc(O)c(O)c1 (stereo not drawn) 0.988

Proceed to CCC(C)CCCCC(=O)NC(CCN)C(=O)NC(C(=O)NC(CCN)C(=O)NC1CCNC(=O)C(C(C)O)NC(=O)C(CCN)NC(=O)C(CCN)NC(=O)C(CC(C)C)NC(=O)C(Cc2ccccc2)NC(=O)C(CCN)NC1=O)C(C)O (stereo not drawn) ({Octanoyl(6-Me)}-[Dab]T[Dab][Dab][Dab]FL[Dab][Dab]T; lactam 4-C; configuration not given here) 0.973

Proceed to CC[C@H]1CN2CCc3cc(OC)c(OC)cc3C2C[C@@H]1CC1NCCc2cc(OC)c(OC)cc21 (stereo partly drawn) 1.01

Proceed to NC[C@H]1O[C@H](O[C@H]2C(O[C@@H]3O[C@H](CO)[C@@H](O)[C@H]3O)[C@@H](O)[C@H](N)C[C@@H]2N)[C@H](N)[C@@H](O)[C@@H]1O (stereo partly drawn) 1.01
